Reference source: ChEMBL document CHEMBL1124798

- system: Opioid receptors; delta & kappa (Homo sapiens) (UniProt P41145+P41143)
- Sequence (P41143 whole entry, looked up): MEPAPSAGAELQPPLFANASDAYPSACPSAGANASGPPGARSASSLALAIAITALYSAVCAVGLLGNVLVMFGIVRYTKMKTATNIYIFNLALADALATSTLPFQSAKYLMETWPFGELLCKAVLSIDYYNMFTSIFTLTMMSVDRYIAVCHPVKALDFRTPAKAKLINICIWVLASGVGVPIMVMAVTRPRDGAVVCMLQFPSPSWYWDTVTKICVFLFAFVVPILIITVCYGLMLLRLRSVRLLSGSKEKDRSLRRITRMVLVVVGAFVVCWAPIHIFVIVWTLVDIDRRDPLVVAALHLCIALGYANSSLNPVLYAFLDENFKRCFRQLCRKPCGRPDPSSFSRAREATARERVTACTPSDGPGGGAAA
- Sequence (P41145 whole entry, looked up): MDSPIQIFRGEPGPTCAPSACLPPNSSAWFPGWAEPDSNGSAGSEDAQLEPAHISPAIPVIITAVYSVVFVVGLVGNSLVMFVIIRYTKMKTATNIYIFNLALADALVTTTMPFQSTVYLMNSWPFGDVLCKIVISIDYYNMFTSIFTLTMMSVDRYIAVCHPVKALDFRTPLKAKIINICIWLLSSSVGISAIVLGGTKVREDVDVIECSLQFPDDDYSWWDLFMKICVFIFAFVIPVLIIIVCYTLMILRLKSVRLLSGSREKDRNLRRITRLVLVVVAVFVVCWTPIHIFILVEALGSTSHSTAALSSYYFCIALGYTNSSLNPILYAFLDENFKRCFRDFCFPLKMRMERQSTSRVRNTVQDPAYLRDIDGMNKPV
- procedure details: Selectivity ratio was determined from Ke value of Opioid receptor kappa 1 and Opioid receptor delta 1
- Type: protein assay
- condition: Cavia porcellus
Where a SMILES comes first, the peptide text is derived from it. [ ]: non-standard residue; d: D form. The star is where a group is joined. Tyr(Nα,Nα-allyl2) = C=CCN(CC=C)[C@@H](Cc1ccc(O)cc1)C(=O)*; Aib = CC(C)(N)C(=O)O

| molecule | Selectivity ratio |
| --- | --- |
| Oc1ccc2c3c1O[C@H]1c4[nH]c5c(F)cccc5c4C[C@@]4(O)[C@@H](C2)N(CC2CC2)CC[C@]314 | > 951 |
| C=CCN(CC=C)[C@@H](Cc1ccc(O)cc1)C(=O)NC(C)(C)C(=O)NC(C)(C)C(=O)N[C@@H](Cc1ccccc1)C(=O)N[C@@H](CC(C)C)C(=O)O ({Tyr(Nα,Nα-allyl2)}-[Aib][Aib]FL-OH) | > 18 |
| Oc1ccc2c3c1O[C@H]1c4[nH]c5c(Br)cccc5c4C[C@@]4(O)[C@@H](C2)N(CC2CC2)CC[C@]314 | > 121 |
| CC(C)(S)[C@@H](NC(=O)[C@H](Cc1ccc(O)cc1)NC(=O)CNC(=O)[C@H](NC(=O)[C@@H](N)Cc1ccccc1)C(C)(C)S)C(=O)O | 202 |

====

Below, each entry is listed with its recorded Ke.
- system: Kappa-type opioid receptor (Cavia porcellus) (UniProt P41144)
- Sequence (P41144 whole entry): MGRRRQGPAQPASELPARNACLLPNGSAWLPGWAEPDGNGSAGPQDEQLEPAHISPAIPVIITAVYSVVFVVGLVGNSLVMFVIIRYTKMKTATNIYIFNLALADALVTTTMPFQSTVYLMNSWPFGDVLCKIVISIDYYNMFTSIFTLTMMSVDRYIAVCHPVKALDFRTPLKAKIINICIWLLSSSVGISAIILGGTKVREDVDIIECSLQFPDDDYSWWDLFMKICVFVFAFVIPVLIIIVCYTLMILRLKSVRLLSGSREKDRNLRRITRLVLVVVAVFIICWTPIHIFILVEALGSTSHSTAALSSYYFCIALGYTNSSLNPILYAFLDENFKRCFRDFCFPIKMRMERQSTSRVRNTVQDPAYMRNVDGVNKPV
- procedure details: Antagonist potency was determined as the ratio of [antagonist] to (IC50 ratio-1) for Opioid receptor kappa 1
- Assay type: functional

| mol smiles | Ke |
| --- | --- |
| Cc1ccc2c3c([nH]c2c1)[C@@H]1Oc2c(O)ccc4c2[C@@]12CCN(CC1CC1)[C@H](C4)[C@]2(O)C3 | > 143 nM |
| Oc1ccc2c3c1O[C@H]1c4[nH]c5cc(F)ccc5c4C[C@@]4(O)[C@@H](C2)N(CC2CC2)CC[C@]314 | > 167 nM |
| COc1ccc2[nH]c3c(c2c1)C[C@@]1(O)[C@H]2Cc4ccc(O)c5c4[C@@]1(CCN2CC1CC1)[C@H]3O5 | 12 nM |
| Oc1ccc2c3c1O[C@H]1c4[nH]c5c(ccc6ccccc65)c4C[C@@]4(O)[C@@H](C2)N(CC2CC2)CC[C@]314 | > 111 nM |
| COc1ccc2c3c1O[C@H]1c4[nH]c5ccccc5c4C[C@@]4(O)[C@@H](C2)N(CC2CC2)CC[C@]314 | > 167 nM |
| Oc1ccc2c3c1O[C@H]1c4[nH]c5ccc(F)cc5c4C[C@@]4(O)[C@@H](C2)N(CC2CC2)CC[C@]314 | 38 nM |
| Cc1ccc2[nH]c3c(c2c1)C[C@@]1(O)[C@H]2Cc4ccc(O)c5c4[C@@]1(CCN2CC1CC1)[C@H]3O5 | > 250 nM |

====

- system: Opioid receptors; delta & kappa (Homo sapiens) (UniProt P41145+P41143)
- procedure details: Selectivity ratio was determined from Ke value of Opioid receptor kappa 1 and Opioid receptor delta 1
- Assay type: protein assay
- condition: Cavia porcellus

| mol smiles | Selectivity ratio |
| --- | --- |
| CC(=O)O[C@@]12Cc3c([nH]c4ccccc34)[C@@H]3Oc4c(O)ccc5c4[C@@]31CCN(CC1CC1)[C@@H]2C5 | > 54 |
| COc1ccc2[nH]c3c(c2c1)C[C@@]1(O)[C@H]2Cc4ccc(O)c5c4[C@@]1(CCN2CC1CC1)[C@H]3O5 | 3.2 |
| Cc1cccc2c3c([nH]c12)[C@@H]1Oc2c(O)ccc4c2[C@@]12CCN(CC1CC1)[C@H](C4)[C@]2(O)C3 | > 221 |
| Oc1ccc2c3c1O[C@H]1c4[nH]c5ccc(F)cc5c4C[C@@]4(O)[C@@H](C2)N(CC2CC2)CC[C@]314 | 19 |
| Oc1ccc2[nH]c3c(c2c1)C[C@@]1(O)[C@H]2Cc4ccc(O)c5c4[C@@]1(CCN2CC1CC1)[C@H]3O5 | 1.8 |
| Oc1ccc2c3c1O[C@H]1c4[nH]c5cc6ccccc6cc5c4C[C@@]4(O)[C@@H](C2)N(CC2CC2)CC[C@]314 | > 4 |
| Cc1ccc2[nH]c3c(c2c1)C[C@@]1(O)[C@H]2Cc4ccc(O)c5c4[C@@]1(CCN2CC1CC1)[C@H]3O5 | > 68 |
| Oc1ccc2c3c1O[C@H]1c4[nH]c5cc(F)ccc5c4C[C@@]4(O)[C@@H](C2)N(CC2CC2)CC[C@]314 | > 38 |
| Oc1ccc2c3c1O[C@H]1c4[nH]c5c(O)cccc5c4C[C@@]4(O)[C@@H](C2)N(CC2CC2)CC[C@]314 | > 595 |
| O=[N+]([O-])c1ccc2[nH]c3c(c2c1)C[C@@]1(O)[C@H]2Cc4ccc(O)c5c4[C@@]1(CCN2CC1CC1)[C@H]3O5 | > 5.6 |
| Oc1ccc2c3c1O[C@H]1c4[nH]c5c(ccc6ccccc65)c4C[C@@]4(O)[C@@H](C2)N(CC2CC2)CC[C@]314 | > 12 |
